Every entry's value here was drawn from ChEMBL document CHEMBL1799988.

# experimental_system: Nuclear factor erythroid 2-related factor 2 (Homo sapiens)
# experiment: Induction of Nrf2-mediated GCLM gene expression in human BEAS2B cells at 10 uM after 16 hrs by RT-PCR analysis relative to untreated control
# Format: functional, cell-based
test_readout: fold change (FC)
Give bare numbers.

Would you please look over these solved cases?
* COc1cc(C(=O)/C=C/c2cccc(C(F)(F)F)c2)cc(OC)c1OC | 1.7
* COc1ccc(C(=O)/C=C/c2ccccc2[N+](=O)[O-])c(OC)c1OC | 2.9

Now let's try a different one.
Input line: What value of fold change (FC) has been reported for the following compound? `COc1ccccc1C(=O)/C=C/c1ccc(C(F)(F)F)cc1`
Output line: 4.3

###

Would you kindly list fold change (FC) for each of these molecules?
# experimental_system: Nuclear factor erythroid 2-related factor 2 (Homo sapiens) (UniProt Q16236)
# experiment: Induction of Nrf2-mediated GCLM gene expression in human BEAS2B cells at 10 uM after 16 hrs by RT-PCR analysis relative to untreated control
# Assay type: functional, cell-based

* COc1cc(OC)cc(C(=O)/C=C/c2cccc(C(F)(F)F)c2)c1 | 3.8
* COc1ccc(C(=O)/C=C/c2ccccc2)c(OC)c1 | 2.7
* COc1cc(OC)cc(C(=O)/C=C/c2ccccc2[N+](=O)[O-])c1 | 3.4
* COc1ccc(OC)c(C(=O)/C=C/c2ccccc2)c1 | 3
* COc1cc(OC)cc(C(=O)/C=C/c2ccccc2)c1 | 3
* COc1cccc(C(=O)/C=C/c2ccccc2[N+](=O)[O-])c1 | 2.9
* COc1cccc(C(=O)/C=C/c2ccc(C(F)(F)F)cc2)c1 | 2.9
* COc1ccc(C(=O)/C=C/c2ccccc2C(F)(F)F)c(OC)c1 | 5.4

Go through the items and report each one's fold change (FC).
1. COc1ccc(C(=O)/C=C/c2ccccc2C(F)(F)F)cc1
2. COc1ccc(C(=O)/C=C/c2cccc(C(F)(F)F)c2)c(OC)c1OC
3. COc1ccc(OC)c(C(=O)/C=C/c2ccccc2[N+](=O)[O-])c1

Output line:
1: 5.4; 2: 3.6; 3: 1.7

###

For each of the molecules below, state its fold change (FC).
# experimental_system: Nuclear factor erythroid 2-related factor 2 (Homo sapiens)
# Sequence (whole entry): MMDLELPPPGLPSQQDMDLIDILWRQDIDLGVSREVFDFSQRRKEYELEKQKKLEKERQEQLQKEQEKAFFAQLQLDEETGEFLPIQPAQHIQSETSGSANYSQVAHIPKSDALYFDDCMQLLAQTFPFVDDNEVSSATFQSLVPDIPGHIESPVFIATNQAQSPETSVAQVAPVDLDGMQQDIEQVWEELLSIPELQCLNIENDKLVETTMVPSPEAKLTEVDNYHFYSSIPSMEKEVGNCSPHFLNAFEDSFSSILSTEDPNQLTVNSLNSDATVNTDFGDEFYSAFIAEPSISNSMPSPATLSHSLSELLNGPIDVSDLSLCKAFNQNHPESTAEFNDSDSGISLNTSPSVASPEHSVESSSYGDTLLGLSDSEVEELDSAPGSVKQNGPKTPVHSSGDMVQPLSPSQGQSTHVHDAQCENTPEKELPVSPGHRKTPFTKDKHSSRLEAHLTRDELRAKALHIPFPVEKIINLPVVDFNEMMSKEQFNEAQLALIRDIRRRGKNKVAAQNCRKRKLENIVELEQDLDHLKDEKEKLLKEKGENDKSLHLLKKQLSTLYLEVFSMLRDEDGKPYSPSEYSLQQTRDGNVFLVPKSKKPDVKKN
# experiment: Induction of Nrf2-mediated NQO1 gene expression in human BEAS2B cells at 10 uM after 16 hrs by RT-PCR analysis relative to untreated control
# Type: functional, cell-based

Solved entries:
- COc1ccc(C(=O)/C=C/c2cccc(C(F)(F)F)c2)cc1OC: 2.9
- COc1cc(C(=O)/C=C/c2ccc(C(F)(F)F)cc2)cc(OC)c1OC: 3.7
- COc1ccccc1C(=O)/C=C/c1ccccc1[N+](=O)[O-]: 1.4
- COc1cccc(C(=O)/C=C/c2ccccc2)c1: 2.4
- COc1ccc(C(=O)/C=C/c2ccc(C(F)(F)F)cc2)c(OC)c1: 4.8

Input line: Requested field: fold change (FC). Item: `COc1ccccc1C(=O)/C=C/c1ccc(C(F)(F)F)cc1`
Output line: 5.4
